# protein stability index per entry
B1: APBB1IP (parent)
chain: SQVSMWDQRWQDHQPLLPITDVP

- Variants of: B1
- assay.summary: protein stability index of a GFP-peptide fusion (GPS, HEK-293T) (PSI 1-6); higher = more stable;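 further: lentivirally expressed fusions sorted by FACS into six bins by GFP to DsRed ratio, PSI derived from sequencing read proportions per bin multiplied by bin number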
- conditions.used: c terminus: native
Give the figure only, with no unit attached.

Please report protein stability index for the following variant: SQVSMWDQRWQDGQPLLPITDVP [H13G]
3.03

Please report protein stability index for the following variant: SQVSMWDQRWQDHQPLLDITDVP [P18D]
3.42

Please report protein stability index for the following variant: SWVSMWDQRWQDHQPLLPITDVP [Q2W]
1.72

Please report protein stability index for the following variant: SQVSMWDQRWQDHQFLLPITDVP [P15F]
2.2

Please report protein stability index for the following variant: SQVSMWDQRWEDHQPLLPITDVP [Q11E]
3.38

Please report protein stability index for the following variant: SQVSMWDQRWQDHQHLLPITDVP [P15H]
2.07

Numbers sourced from the supplement of paper PMC10567573.
